Value source: patent US20230365662A1

- ASSAYED SYSTEM: HRgpA-6H (Porphyromonas gingivalis) (UniProt P28784)
- ASSAY NOTES: ELISA on coated HRgpA-6H
TEST READOUT: OD450nm

Would you please look over these solved cases?
KB001 mouse Fab FASEBA VH Y59F (Fab, V domains shown) VH: EVQLKQSGPGLVAPSQSLSITCTVSGFSLSIYSVHWVRQPPGKGLEWLGMIWGGGSSDFNSALKSRLSISKDNSKSQVFLKMNSLQTDDTAMYYCARNGNFYAMDYWGQGTSVTVSS VL: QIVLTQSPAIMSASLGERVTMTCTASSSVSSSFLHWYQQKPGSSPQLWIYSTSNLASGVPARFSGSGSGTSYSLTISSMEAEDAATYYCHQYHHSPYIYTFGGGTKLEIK : 0.668
KB001 mouse Fab FASEBA VH S28A (Fab, V domains shown) VH: EVQLKQSGPGLVAPSQSLSITCTVSGFALSIYSVHWVRQPPGKGLEWLGMIWGGGSSDYNSALKSRLSISKDNSKSQVFLKMNSLQTDDTAMYYCARNGNFYAMDYWGQGTSVTVSS VL: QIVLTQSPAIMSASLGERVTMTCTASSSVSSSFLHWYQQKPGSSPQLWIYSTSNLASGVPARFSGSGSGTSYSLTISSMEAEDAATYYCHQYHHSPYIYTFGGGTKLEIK : 0.488

Turning now to a further record.
Suppose we examine the binder KB001 mouse Fab FASEBA VH L29V (Fab, V domains shown) VH: EVQLKQSGPGLVAPSQSLSITCTVSGFSVSIYSVHWVRQPPGKGLEWLGMIWGGGSSDYNSALKSRLSISKDNSKSQVFLKMNSLQTDDTAMYYCARNGNFYAMDYWGQGTSVTVSS VL: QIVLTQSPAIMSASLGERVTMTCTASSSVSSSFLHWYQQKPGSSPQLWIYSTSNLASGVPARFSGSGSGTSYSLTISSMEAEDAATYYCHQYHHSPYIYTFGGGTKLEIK ; what OD450nm value has been reported?
0.446
